- TESTED ON: Protein kinase C alpha type (Homo sapiens); further: in other assays of this panel Not Active means under 50% inhibition at 10 µM;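 further: inhibition of PKCalpha kinase activity measured in an enzyme assay with histone as the phosphorylation substrate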
- Type: cell-based
- EXPERIMENTAL CONDITIONS: sf9
VALUE TYPE: IC50

Here is how some molecules turned out for IC50.
# MOLECULE, OBSERVED RESULT
measured = [
    ("[H]/N=C(/N)N[C@H]1[C@H](O)[C@@H](O)[C@H](O[C@@H]2O[C@@H](C)[C@](O)(C=O)[C@H]2O[C@@H]2O[C@@H](CO)[C@H](O)[C@@H](O)[C@@H]2NC)[C@@H](N/C(N)=N\\[H])[C@@H]1O", "Not Active"),
    ("COP(=O)(OC)OC=C(Cl)Cl", "Not Active"),
    ("Cc1cc(C)nc(NS(=O)(=O)c2ccc(N)cc2)n1", "Not Active"),
    ("COCCCOc1ccnc(C[S+]([O-])c2nc3ccccc3[nH]2)c1C (stereo not given)", "Not Active"),
    ("Cc1ncc([N+](=O)[O-])n1CCO", "Not Active"),
]

Note to self: IC50 recorded for Cn1c(=O)c2c(ncn2CC2OCCO2)n(C)c1=O was Not Active

Entry O=C1CC[C@H](N2C(=O)c3ccccc3C2=O)C(=O)N1 ; IC50 = Not Active

Cc1ccccc1C(=O)N1CCC(Cc2ccccc2)CC1 has a reported IC50 of Not Active

Form field IC50, entry COc1cccc2c1C(=O)c1c(O)c3c(c(O)c1C2=O)C[C@@](O)(C(=O)CO)C[C@@H]3O[C@H]1C[C@H](N)[C@H](O)[C@H](C)O1 : Not Active

Reported IC50 for COC(=O)C1=C(C)NC(C)=C(C(=O)OCC(C)C)C1c1ccccc1[N+](=O)[O-] (stereo not given) was Not Active

IC50 reading for CCc1c2c(nc3ccc(OC(=O)N4CCC(N5CCCCC5)CC4)cc13)-c1cc3c(c(=O)n1C2)COC(=O)[C@]3(O)CC : Not Active

Consider CC1(C)O[C@@H]2C[C@H]3[C@@H]4C[C@H](F)C5=CC(=O)CC[C@]5(C)[C@H]4[C@@H](O)C[C@]3(C)[C@]2(C(=O)CO)O1 [FLURANDRENOLIDE] . Its measured IC50 is Not Active

For CC(C)(Oc1ccc(C2CCCc3ccccc32)cc1)C(=O)O (stereo not given) the molecule record lists IC50 as Not Active

GET /value?item= CC(=O)N[C@@H]1[C@H](Oc2c3cc4cc2Oc2ccc(cc2Cl)[C@@H](O[C@@H]2O[C@@H](CO)[C@@H](O)[C@H](O)[C@@H]2NC(C)=O)[C@@H]2NC(=O)[C@H](NC(=O)[C@@H]4NC(=O)[C@H]4NC(=O)[C@@H](Cc5ccc(c(Cl)c5)O3)NC(=O)[C@H](N)c3ccc(O)c(c3)Oc3cc(O)cc4c3)c3ccc(O)c(c3)-c3c(O[C@H]4O[C@H](CO)[C@@H](O)[C@@H](O)[C@@H]4O)cc(O)cc3[C@@H](C(=O)O)NC2=O)O[C@@H](CO)[C@@H](O)[C@@H]1O &field=IC50 returns Not Active

Per the record, CC(C)NCC(O)COc1cccc2ccccc12 (stereo not given) has IC50 of Not Active
